Hello, the source for this data is patent US9969775B2, in case you need it.

- Subject Of Test: hAM2 receptor (CALCRL:RAMP3) (Homo sapiens, UniProt O60896+Q16602)
- Construct: expressed in transfected cells; host or cells: GeneBLAzer CALCRL:RAMP3-CRE-bla Freestyle 293F
- Sequence (Q16602 23-461): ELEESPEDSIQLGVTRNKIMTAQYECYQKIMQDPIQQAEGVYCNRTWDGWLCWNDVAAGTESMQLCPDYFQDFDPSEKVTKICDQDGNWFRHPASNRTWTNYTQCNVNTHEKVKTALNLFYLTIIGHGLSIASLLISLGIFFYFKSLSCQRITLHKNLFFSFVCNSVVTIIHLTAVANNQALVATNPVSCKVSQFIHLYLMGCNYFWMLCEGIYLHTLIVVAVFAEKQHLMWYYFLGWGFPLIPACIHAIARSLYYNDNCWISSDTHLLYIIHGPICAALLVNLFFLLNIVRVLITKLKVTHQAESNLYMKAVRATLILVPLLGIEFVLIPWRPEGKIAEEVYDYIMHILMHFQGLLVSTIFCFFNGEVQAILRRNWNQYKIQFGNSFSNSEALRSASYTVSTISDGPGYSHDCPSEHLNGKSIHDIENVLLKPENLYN
- Sequence (O60896 24-148): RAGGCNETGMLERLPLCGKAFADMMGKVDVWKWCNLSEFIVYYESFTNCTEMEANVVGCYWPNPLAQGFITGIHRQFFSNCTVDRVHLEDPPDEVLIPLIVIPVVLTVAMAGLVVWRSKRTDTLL
- Method: AM2 receptor antagonist activity measured by cAMP assay (HTRF)
- Format: cell-based
- Study Conditions: % MPE: percent of the maximal possible effect; agonist human adrenomedullin; read-out: hAM2-R Efficacy Antag (%) Ave
Numbered stars: 1 amine (or outer) side, 2 acyl side, 3 side chain; on linkers, the order of the positions; unused ones are H or OH. Bridge positions count the residues as written; N and C are the ends. Square brackets hold non-standard residues; d marks the D form. Side chains are listed from the residue outwards. Peptide text beside a SMILES is read from it. * marks the point of attachment. Phe(4-NHCONH2) = NC(=O)Nc1ccc(C[C@H](N)C(=O)O)cc1; Phe(2-CONH2) = NC(=O)c1ccccc1C[C@H](N)C(=O)O; X5 = O=C([C@H](Cc1ccc(CO)cc1)N[*:1])[*:2]; Triazol3yl(1,2,4-5-NH2) = Nc1nc(*)n[nH]1; Picolinoyl(3,5-F2) = O=C(c1ncc(F)cc1F)*; X3 = NCc1ccccc1C[C@H](N[*:1])C(=O)[*:2]; Picolinoyl(5-F) = O=C(c1ccc(F)cn1)*; Orn(iPr) = CC(C)NCCC[C@H](N)C(=O)O; Dab(iPr) = CC(C)NCC[C@H](N)C(=O)O; Benzoyl(4-F) = O=C(c1ccc(F)cc1)*; Oxazole2carbonyl = O=C(c1ncco1)*; 3Pal = N[C@@H](Cc1cccnc1)C(=O)O; Agp = N=C(N)NC[C@H](N)C(=O)O; Picolinoyl = O=C(c1ccccn1)*; ΔPro = O=C(O)[C@@H]1C=CCN1; Orn = NCCC[C@H](N)C(=O)O; X2 = Cc1n[nH]c(C(=O)*)n1; Dab = NCC[C@H](N)C(=O)O; Dap = NC[C@H](N)C(=O)O; AEEA = NCCOCCOCC(=O)O; X1 = O=C(c1ncccc1F)*
Measured Endpoint: Emax (%)

compound="CC(C)NCC[C@@H]1NC(=O)[C@@H](NC(=O)[C@H](Cc2ccc(O)cc2)NC(=O)[C@H](NC(=O)c2ccccn2)C(C)C)CSSC[C@@H](C(=O)N[C@@H](Cc2cccnc2)C(N)=O)NC(=O)[C@H](Cc2ccccc2)NC(=O)[C@@H]2CCCN2C(=O)CNC(=O)[C@H](C(C)C)NC(=O)[C@H](CC(=O)O)NC1=O [Compound 9] (Picolinoyl-[dV]YC[Dab(iPr)]DVGPFC[3Pal]-NH2; disulfide 3-10)" uom=% reported_measurement=106
compound="CC(C)[C@@H]1NC(=O)[C@H](CC(=O)O)NC(=O)[C@H](CCCN)NC(=O)[C@@H](NC(=O)[C@H](Cc2ccc(O)cc2)NC(=O)[C@H](NC(=O)c2ccc(F)cn2)C(C)C)CSSC[C@@H](C(=O)N[C@@H](Cc2cccnc2)C(N)=O)NC(=O)[C@H](Cc2ccc(CO)cc2)NC(=O)[C@@H]2CCCN2C(=O)CNC1=O [Compound 56] ({Picolinoyl(5-F)}-[dV]YC[Orn]DVGP[X5]C[3Pal]-NH2; disulfide 3-10)" uom=% reported_measurement=100
compound="Cc1n[nH]c(C(=O)N[C@@H](C(=O)N[C@@H](Cc2ccc(O)cc2)C(=O)N[C@H]2CSSC[C@@H](C(=O)N[C@@H](Cc3cccnc3)C(N)=O)NC(=O)[C@H](Cc3ccccc3)NC(=O)[C@@H]3CCCN3C(=O)CNC(=O)[C@H](C(C)C)NC(=O)[C@H](CC(=O)O)NC(=O)[C@H](CCCNC(=N)N)NC2=O)C(C)C)n1 [Compound 48] (X2-[dV]YCRDVGPFC[3Pal]-NH2; disulfide 3-10)" uom=% reported_measurement=96
compound="CC(C)[C@@H]1NC(=O)[C@H](CC(=O)O)NC(=O)[C@H](CNC(=N)N)NC(=O)[C@@H](NC(=O)[C@H](Cc2ccc(O)cc2)NC(=O)[C@H](NC(=O)c2ccc(F)cc2)C(C)C)CSSC[C@@H](C(=O)N[C@@H](Cc2cccnc2)C(N)=O)NC(=O)[C@H](Cc2ccccc2)NC(=O)[C@@H]2CCCN2C(=O)CNC1=O [Ref. Cpd. 1, reference compound] ({Benzoyl(4-F)}-[dV]YC[Agp]DVGPFC[3Pal]-NH2; disulfide 3-10)" uom=% reported_measurement=98
compound="Cc1n[nH]c(C(=O)N[C@@H](C(=O)N[C@@H](Cc2ccc(O)cc2)C(=O)N[C@H]2CSSC[C@@H](C(=O)N[C@@H](Cc3cccnc3)C(N)=O)NC(=O)[C@H](Cc3ccccc3CN)NC(=O)[C@@H]3CCCN3C(=O)CNC(=O)[C@H](C(C)C)NC(=O)[C@H](CC(=O)O)NC(=O)[C@H](CCCNC(=N)N)NC2=O)C(C)C)n1 [Compound 53] (X2-[dV]YCRDVGP[X3]C[3Pal]-NH2; disulfide 3-10)" uom=% reported_measurement=98
compound="CC(C)NCCC[C@@H]1NC(=O)[C@@H](NC(=O)[C@H](Cc2ccccc2C(N)=O)NC(=O)[C@H](NC(=O)c2ncco2)C(C)C)CSSC[C@@H](C(=O)N[C@@H](Cc2cccnc2)C(N)=O)NC(=O)[C@H](Cc2ccc(NC(N)=O)cc2)NC(=O)[C@@H]2C=CCN2C(=O)CNC(=O)[C@H](C(C)C)NC(=O)[C@H](CC(=O)O)NC1=O [Compound 60] (Oxazole2carbonyl-[dV][Phe(2-CONH2)]C[Orn(iPr)]DVG[ΔPro][Phe(4-NHCONH2)]C[3Pal]-NH2; disulfide 3-10)" uom=% reported_measurement=100
compound="CC(C)NCCC[C@@H]1NC(=O)[C@@H](NC(=O)[C@H](Cc2ccc(O)cc2)NC(=O)[C@H](NC(=O)c2ncc(F)cc2F)C(C)C)CSSC[C@@H](C(=O)N[C@@H](Cc2cccnc2)C(N)=O)NC(=O)[C@H](Cc2ccccc2)NC(=O)[C@@H]2CCCN2C(=O)CNC(=O)[C@H](C(C)C)NC(=O)[C@H](CC(=O)O)NC1=O [Compound 62] ({Picolinoyl(3,5-F2)}-[dV]YC[Orn(iPr)]DVGPFC[3Pal]-NH2; disulfide 3-10)" uom=% reported_measurement=100
compound="CC(C)[C@@H]1NC(=O)[C@H](CC(=O)O)NC(=O)[C@H](CCCNC(=N)N)NC(=O)[C@@H](NC(=O)[C@H](Cc2ccc(O)cc2)NC(=O)[C@H](NC(=O)c2ncccc2F)C(C)C)CSSC[C@@H](C(=O)N[C@@H](Cc2cccnc2)C(N)=O)NC(=O)[C@H](Cc2ccccc2)NC(=O)[C@@H]2CCCN2C(=O)CNC1=O [Compound 17] (X1-[dV]YCRDVGPFC[3Pal]-NH2; disulfide 3-10)" uom=% reported_measurement=100
compound="CC(C)[C@@H]1NC(=O)[C@H](CC(=O)O)NC(=O)[C@H](CNC(=O)COCCOCCNC(=O)COCCOCCN)NC(=O)[C@@H](NC(=O)[C@H](Cc2ccc(O)cc2)NC(=O)[C@H](NC(=O)c2ccccn2)C(C)C)CSSC[C@@H](C(=O)N[C@@H](Cc2cccnc2)C(N)=O)NC(=O)[C@H](Cc2ccccc2)NC(=O)[C@@H]2CCCN2C(=O)CNC1=O [Compound 10] (Picolinoyl-[dV]YC[Dap]([AEEA-AEEA])DVGPFC[3Pal]-NH2; disulfide 3-10)" uom=% reported_measurement=107
compound="CC(C)[C@@H]1NC(=O)[C@H](CC(=O)O)NC(=O)[C@H](CCCNC(=N)N)NC(=O)[C@@H](NC(=O)[C@H](Cc2ccc(O)cc2)NC(=O)[C@H](NC(=O)c2ccccn2)C(C)C)CSSC[C@@H](C(=O)N[C@@H](Cc2cccnc2)C(N)=O)NC(=O)[C@H](Cc2cccnc2)NC(=O)[C@@H]2CCCN2C(=O)CNC1=O [Compound 3] (Picolinoyl-[dV]YCRDVGP[3Pal]C[3Pal]-NH2; disulfide 3-10)" uom=% reported_measurement=101
compound="CC(C)[C@@H]1NC(=O)[C@H](CC(=O)O)NC(=O)[C@H](CCNc2nc(N)n[nH]2)NC(=O)[C@@H](NC(=O)[C@H](Cc2ccccc2C(N)=O)NC(=O)[C@H](NC(=O)c2ncco2)C(C)C)CSSC[C@@H](C(=O)N[C@@H](Cc2cccnc2)C(N)=O)NC(=O)[C@H](Cc2cccnc2)NC(=O)[C@@H]2CCCN2C(=O)CNC1=O [Compound 42] (Oxazole2carbonyl-[dV][Phe(2-CONH2)]C[Dab](Triazol3yl(1,2,4-5-NH2))DVGP[3Pal]C[3Pal]-NH2; disulfide 3-10)" uom=% reported_measurement=97

====

Listed next: entries and their corresponding Emax.
- Subject Of Test: hCGRP receptor (CALCRL:RAMP1) (Homo sapiens, UniProt O60894+Q16602)
- Construct: host or cells: GeneBLAzer CALCRL:RAMP1-CRE-bla Freestyle 293F
- Sequence (Q16602 23-461): as the sequence (Q16602 23-461) above
- Sequence (O60894 27-148): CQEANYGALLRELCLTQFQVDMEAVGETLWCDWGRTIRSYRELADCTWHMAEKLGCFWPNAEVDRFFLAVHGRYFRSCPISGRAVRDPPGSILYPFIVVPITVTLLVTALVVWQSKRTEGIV
- Method: CGRP receptor antagonist activity measured by cAMP assay (HTRF)
- Assay type: cell-based
- Study Conditions: % MPE: percent of the maximal possible effect; agonist human α-CGRP; read-out: hCGRP-R Efficacy Antag (%) Ave
Numbered stars: 1 amine (or outer) side, 2 acyl side, 3 side chain; on linkers, the order of the positions; unused ones are H or OH. Bridge positions count the residues as written; N and C are the ends. Square brackets hold non-standard residues; d marks the D form. Peptide text beside a SMILES is read from it. * marks the point of attachment. X5 = O=C([C@H](Cc1ccc(CO)cc1)N[*:1])[*:2]; Picolinoyl(5-F) = O=C(c1ccc(F)cn1)*; Orn(iPr) = CC(C)NCCC[C@H](N)C(=O)O; 3Pal = N[C@@H](Cc1cccnc1)C(=O)O; Orn = NCCC[C@H](N)C(=O)O; X12 = Cc1cccnc1C(=O)*; X1 = O=C(c1ncccc1F)*
Measured Endpoint: Emax (%)

compound="CC(C)[C@@H]1NC(=O)[C@H](CC(=O)O)NC(=O)[C@H](CCCN)NC(=O)[C@@H](NC(=O)[C@H](Cc2ccc(O)cc2)NC(=O)[C@H](NC(=O)c2ncccc2F)C(C)C)CSSC[C@@H](C(=O)N[C@@H](Cc2cccnc2)C(N)=O)NC(=O)[C@H](Cc2ccc(CO)cc2)NC(=O)[C@@H]2CCCN2C(=O)CNC1=O [Compound 29] (X1-[dV]YC[Orn]DVGP[X5]C[3Pal]-NH2; disulfide 3-10)" reported_measurement=100
compound="CC(C)NCCC[C@@H]1NC(=O)[C@@H](NC(=O)[C@H](Cc2ccc(O)cc2)NC(=O)[C@H](NC(=O)c2ccc(F)cn2)C(C)C)CSSC[C@@H](C(=O)N[C@@H](Cc2cccnc2)C(N)=O)NC(=O)[C@H](Cc2ccc(CO)cc2)NC(=O)[C@@H]2CCCN2C(=O)CNC(=O)[C@H](C(C)C)NC(=O)[C@H](CC(=O)O)NC1=O [Compound 61] ({Picolinoyl(5-F)}-[dV]YC[Orn(iPr)]DVGP[X5]C[3Pal]-NH2; disulfide 3-10)" reported_measurement=100
compound="Cc1cccnc1C(=O)N[C@@H](C(=O)N[C@@H](Cc1ccc(O)cc1)C(=O)N[C@H]1CSSC[C@@H](C(=O)N[C@@H](Cc2cccnc2)C(N)=O)NC(=O)[C@H](Cc2ccccc2)NC(=O)[C@@H]2CCCN2C(=O)CNC(=O)[C@H](C(C)C)NC(=O)[C@H](CC(=O)O)NC(=O)[C@H](CCCNC(=N)N)NC1=O)C(C)C [Compound 34] (X12-[dV]YCRDVGPFC[3Pal]-NH2; disulfide 3-10)" reported_measurement=100
